Cited source for all entries: ChEMBL document CHEMBL1201862

System: A498
Assay: NCI tumour cell line growth inhibition, 48 h
The source made the active and inactive calls. Rule as the data show it: active = GI50 up to about 1.1 µM and inactive = higher.
Measured Endpoint: GI50

// solved cases for GI50 follow
O=C(O)c1cc2c(cc1CC(Cc1ccccc1)C(=O)O)CCC2 (stereo not drawn) : > 100 µM (inactive)
CC(C)=CCC[C@@H](C)/C=C/C=C(\C)C(=O)CC[C@@H]1CC[N@+]2(C)CCCC[C@H]12 : > 100 µM (inactive)
COC(=O)[C@H](Cc1c[nH]c2ccccc12)NP(=O)(O)OCC1C=CC(n2cc(C)c(=O)[nH]c2=O)O1 (stereo partly drawn) : > 100 µM (inactive)
O=[N+]([O-])c1ccc2c(c1)OCCOCCOc1ccc([N+](=O)[O-])cc1OCCOCCO2 : > 100 µM (inactive)
N#CC(C#N)=C1C(=O)NC(N)=C1C#N : > 100 µM (inactive)

Entry "Cc1cc(Nc2ccc(S(=O)(=O)O)cc2)c2ccccc2n1" has what GI50?
> 100 µM (inactive)

Entry "CC(=O)O[C@H]1C[C@@H](OC(C)=O)[C@@](C)(O)[C@@H]2[C@@H](OC(C)=O)[C@@]3(O)[C@H](/C=C(/CO)[C@H]4O[C@H]4[C@@H](OC(C)=O)[C@@]12C)OC(=O)[C@@H]3C" has what GI50?
> 25 µM (inactive)

Entry "CC(=O)NNc1nc(C)c(C(/C=C/c2ccc(Cl)cc2)=N/NC(=S)NN)s1" has what GI50?
> 100 µM (inactive)

Entry "CCCCCCCCCCCCCCCCCC(=O)NCCCNCCCNC(=O)CCCCCCCCCCCCCCCCC" has what GI50?
> 100 µM (inactive)
